FYI, the data here is from patent US10399966B2.

test: Cytotoxicity against HepG2 cells; settings: human
quantity_measured: EC90

{"columns": ["compound", "reported_value"],
 "data": [
  ["O=C(Nc1ccc2sc(-c3ccc(F)c(F)c3)nc2c1)N1CCC(F)C1 (racemic) [Compound 3]", "> 50 µM"]
]}

* * *

test: Rat pharmacokinetics, intravenous administration; type: in vivo; set-up: unit not given here; settings: rat, in vivo, iv, 5 mg/kg, Mean ± SEM (n = 2)
quantity_measured: AUC(0-inf)

{"columns": ["chem_smiles", "quantity_measured", "reported_value"],
 "data": [
  ["O=C(Nc1ccc2sc(-c3ccc(F)c(F)c3)nc2c1)N1CC[C@H](F)C1", "AUC(0-inf)", 1440]
]}
